Where these numbers come from: ChEMBL document CHEMBL1139374

- target or system: Glutamate carboxypeptidase 2 (Homo sapiens)
- Sequence (Q04609 whole entry): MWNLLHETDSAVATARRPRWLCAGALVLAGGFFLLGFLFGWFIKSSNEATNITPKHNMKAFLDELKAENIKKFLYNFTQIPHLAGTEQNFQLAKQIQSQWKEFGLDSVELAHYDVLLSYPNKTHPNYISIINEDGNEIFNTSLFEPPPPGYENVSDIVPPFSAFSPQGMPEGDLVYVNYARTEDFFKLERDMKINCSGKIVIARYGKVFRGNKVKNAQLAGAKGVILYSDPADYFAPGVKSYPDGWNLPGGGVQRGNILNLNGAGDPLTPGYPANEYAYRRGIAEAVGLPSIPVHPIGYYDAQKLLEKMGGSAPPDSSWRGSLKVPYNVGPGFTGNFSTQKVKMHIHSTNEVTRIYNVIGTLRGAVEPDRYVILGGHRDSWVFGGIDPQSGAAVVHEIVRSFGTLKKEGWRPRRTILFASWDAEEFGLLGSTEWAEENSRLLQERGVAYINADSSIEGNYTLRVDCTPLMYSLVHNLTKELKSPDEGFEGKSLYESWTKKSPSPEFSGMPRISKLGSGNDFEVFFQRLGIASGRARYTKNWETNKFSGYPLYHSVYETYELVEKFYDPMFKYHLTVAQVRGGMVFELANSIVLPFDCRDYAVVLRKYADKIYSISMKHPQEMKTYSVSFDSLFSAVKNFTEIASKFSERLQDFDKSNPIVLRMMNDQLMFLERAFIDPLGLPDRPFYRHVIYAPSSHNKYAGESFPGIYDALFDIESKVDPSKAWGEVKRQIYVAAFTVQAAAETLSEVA
- test method notes: Binding affinity to PSMA in human LNCaP cells assessed as cell surface binding in Tris-buffered saline buffer
- Format: cell-based
For each of the compounds below, state its log10(Kd).
For clarity, the numbers are log10 values of Kd expressed in nM.

Note down log10(Kd) recorded for CC1(C)C(/C=C/C2=C(Oc3ccc(S(=O)(=O)O)cc3)C(=C/C=C3/N(CCCCS(=O)(=O)O)c4ccc(S(=O)(=O)[O-])cc4C3(C)C)/CCC2)=[N+](CCCCCC(=O)NCCCCCC(=O)NC23CC4(CCC=O)CC(CCC=O)(CC(CCC(=O)N[C@@H](CCP(=O)(O)CC(CCC(=O)O)C(=O)O)C(=O)O)(C4)C2)C3)c2ccc(S(=O)(=O)O)cc21 (stereo not given in full) 0.73

Using the record for CC(C)(C)OC(=O)NCCCCCC(=O)NC12CC3(CCC(=O)N[C@@H](CCP(=O)(O)CC(CCC(=O)O)C(=O)O)C(=O)O)CC(CCC(=O)N[C@@H](CCP(=O)(O)CC(CCC(=O)O)C(=O)O)C(=O)O)(CC(CCC(=O)N[C@@H](CCP(=O)(O)CC(CCC(=O)O)C(=O)O)C(=O)O)(C3)C1)C2 (stereo not given in full) , state its measured log10(Kd). -0.40

Input N[C@@H](CCP(=O)(O)CC(CCC(=O)O)C(=O)O)C(=O)O (stereo not given in full) , output reported log10(Kd). 1.02

Using known records, supply log10(Kd) for CC(C)(C)OC(=O)NC12CC3(CCC(=O)N[C@@H](CCP(=O)(O)CC(CCC(=O)O)C(=O)O)C(=O)O)CC(CCC(=O)N[C@@H](CCP(=O)(O)CC(CCC(=O)O)C(=O)O)C(=O)O)(CC(CCC(=O)N[C@@H](CCP(=O)(O)CC(CCC(=O)O)C(=O)O)C(=O)O)(C3)C1)C2 (stereo not given in full) -0.22

Give the value of log10(Kd) reported for the following: CC1(C)C(/C=C/C2=C(Oc3ccc(S(=O)(=O)O)cc3)C(=C/C=C3/N(CCCCS(=O)(=O)O)c4ccc(S(=O)(=O)[O-])cc4C3(C)C)/CCC2)=[N+](CCCCCC(=O)NCCCCCC(=O)NC23CC4(CCC=O)CC(CCC(=O)N[C@@H](CCP(=O)(O)CC(CCC(=O)O)C(=O)O)C(=O)O)(CC(CCC(=O)N[C@@H](CCP(=O)(O)CC(CCC(=O)O)C(=O)O)C(=O)O)(C4)C2)C3)c2ccc(S(=O)(=O)O)cc21 (stereo not given in full) 0.11
